EXPERIMENTAL_TARGET: alkaline phosphatase (Homo sapiens, UniProt P05187)
Sequence (P05187 23-506): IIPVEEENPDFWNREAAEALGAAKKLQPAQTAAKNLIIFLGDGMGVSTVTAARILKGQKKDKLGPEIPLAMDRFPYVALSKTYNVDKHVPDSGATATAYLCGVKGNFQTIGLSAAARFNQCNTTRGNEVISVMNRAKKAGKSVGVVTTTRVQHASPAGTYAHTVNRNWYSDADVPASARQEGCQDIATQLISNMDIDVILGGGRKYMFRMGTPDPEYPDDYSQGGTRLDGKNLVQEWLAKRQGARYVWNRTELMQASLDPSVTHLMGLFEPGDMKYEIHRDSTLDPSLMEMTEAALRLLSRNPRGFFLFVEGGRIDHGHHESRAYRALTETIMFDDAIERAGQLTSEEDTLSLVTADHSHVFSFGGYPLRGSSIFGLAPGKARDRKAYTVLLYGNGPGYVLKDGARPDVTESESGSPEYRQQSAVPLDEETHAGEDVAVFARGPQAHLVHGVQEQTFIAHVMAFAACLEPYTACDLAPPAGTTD
EXPERIMENTAL_DETAILS: Conversion of mutual prodrugs to salmeterol and AISTM drug after exposure to alkaline phosphatase in vitro (LCMS)
Type: in vitro ADME
CONDITION_INFO: human, alkaline phosphatase (Sigma P-3895) in reaction buffer, pH 7.4, ALP Enzyme Conc. 0.224 mg/mL; Table 1b; first order kinetics assumed; read-out: Half Life t1/2
Experimental: Conversion of the Mutual AISTM-β-Agonist Prodrugs (Described in Examples 29 and 37) to Salmeterol and Respective AISTM Drugs after Exposure to Alkaline Phosphatase In Vitro Reaction Buffer (pH 7.4, 5 mM tris/1 mM Mg^2+/1 mM Zn^2+) […] Dissolved ˜2 mg of the mutual prodrug of invention in 10 ml 1:1 acetonitrile/water. […] The 96-well plates were then analyzed using the LCMS technique. […] Drug concentrations are calculated by normalizing the peak area ration to (t 0). […]
MEASURED_PARAMETER: half-life at 111.7 μM (h)
Give the value in h but do not write h after it.

Request: Data request, read-out half-life at 111.7 μM, for CC(C)Cn1ncc2cc(Oc3ccc(F)cc3F)c(C(=O)NCC[N+](C)(C)Cc3cc(C(O)CNCCCCCCOCCCCc4ccccc4)ccc3OP(=O)(O)O)cc21 (stereo not shown)
Response: 5.78

Numbers sourced from patent US20100098641A1.
